TARGET: T1, RsAgo delL777 (Rhodobacter sphaeroides (ATCC 17025D-5), UniProt A4WYU7 1-776, del777-777)
T1 sequence: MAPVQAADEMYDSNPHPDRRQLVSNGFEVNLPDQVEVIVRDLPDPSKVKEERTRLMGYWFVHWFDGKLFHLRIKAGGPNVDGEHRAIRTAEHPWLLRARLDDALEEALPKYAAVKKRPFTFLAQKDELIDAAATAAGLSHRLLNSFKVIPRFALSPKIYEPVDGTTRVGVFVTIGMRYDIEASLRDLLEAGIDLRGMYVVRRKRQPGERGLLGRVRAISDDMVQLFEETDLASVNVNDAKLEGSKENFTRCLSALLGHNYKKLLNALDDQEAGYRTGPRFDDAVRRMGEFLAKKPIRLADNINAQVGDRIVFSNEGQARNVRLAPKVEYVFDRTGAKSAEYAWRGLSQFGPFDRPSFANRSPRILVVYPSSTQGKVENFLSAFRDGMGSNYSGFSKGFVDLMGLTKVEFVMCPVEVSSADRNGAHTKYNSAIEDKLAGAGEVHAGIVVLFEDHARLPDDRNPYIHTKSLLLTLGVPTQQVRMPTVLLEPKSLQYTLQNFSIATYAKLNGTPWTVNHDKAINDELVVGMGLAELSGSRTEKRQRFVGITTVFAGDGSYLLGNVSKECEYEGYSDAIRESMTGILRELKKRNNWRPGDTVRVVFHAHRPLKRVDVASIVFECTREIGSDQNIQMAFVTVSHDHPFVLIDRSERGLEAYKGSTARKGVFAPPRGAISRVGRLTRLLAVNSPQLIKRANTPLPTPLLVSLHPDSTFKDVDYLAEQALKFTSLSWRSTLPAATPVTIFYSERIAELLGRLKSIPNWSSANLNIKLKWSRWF
PROTOCOL TEXT: fluorescence polarization; 5 mM Mg2+; FP: 20 mM HEPES-KOH pH 7.5, 200 mM NaCl, 5 mM MgCl2, 0.01 mg/ml E. coli total tRNA, 0.01% NP-40, 10 pM probe, 25 C; EMSA: 20 mM HEPES-KOH pH 7.5, 200 mM NaCl, 5
MEASURED METRIC: Kd (nM)
State just the number; it will be interpreted in nM.

Supply measured Kd of UUACAACCUACUACCUCG (ssRNA, 5'-phosphate) [5'P-RNA (5'U-RNA), FAM] in your reply.
38.7

Reference source: paper PMC4919518
